Cited source: patent US20250214973A1

Hi there, I'd appreciate the recorded GI50 for every entry that follows.
- System: MDA-MB-231
- ASSAY: Initial screening, SRB assay GI50
- Assay type: cell-based
- CONDITION INFO: Homo sapiens, 48 hrs
- Protocol: For initial screening, the GIso of compounds 4a-4h in the cell lines MDA-MB-231, MDA-MB-435 and MCF-7 was determined via the SRB-assay for 48 hrs as follows: A stock solution of compounds was prepared at 50 mM in 100% DMSO. […] The concentration of cells was determined using a 1:2 dilutions with Trypan Blue and a hemocytometer. […] For analysis, TRIS-BASE Solution (pH=10.5) was used and shaken prior to reading using an ELISA reader at 540 nm and the software SoftMax Pro 4.8. […]
Use µM as the unit, but write only the number.

Query block: Which measured GI50 value corresponds to CCn1c2ccccc2c2cc(-n3nnc(C(O)c4ccco4)c3-c3ccccc3)ccc21 (centres unmarked) ?
Result block: 17.5

Query block: Dear colleague, I am looking for the recorded GI50 of the following molecule: CCn1c2ccccc2c2cc(-n3nnc(C(O)c4ccc(OC)cc4)c3-c3ccccc3)ccc21 (centres unmarked)
Result block: 26.2

Query block: Any idea what its GI50 is? The molecule is CCn1c2ccccc2c2cc(-n3nnc(C(O)c4ccccc4)c3-c3ccccc3)ccc21 (centres unmarked)
Result block: 24.3

Query block: Give the measured GI50 of CCn1c2ccccc2c2cc(-n3nnc(C(=O)c4cccs4)c3-c3ccccc3)ccc21 .
Result block: 0.915

Query block: Query: GI50; subject: CCn1c2ccccc2c2cc(-n3nnc(C(O)c4cccc(OC)c4)c3-c3ccccc3)ccc21 (centres unmarked)
Result block: 17.2
